- Subject Of Test: T1, iASPP Ank-SH3 (human, UniProt Q8WUF5 603-828)
- T1 construct: iASPP (human), four ankyrin repeats and SH3 domain, residues 603-828, Swiss-Prot Q8WUF5; also called iASPP Ank-SH3 603-828; cleaved iASPP Ank-SH3; source: E. coli HMS 174, purified (Nickel Sepharose, TEV cleavage, second Nickel column, size exclusion chromatography); not shown: HLT (His tag, lipoyl domain, TEV protease cleavage site), N-terminal, cleaved
- T1 sequence (looked up): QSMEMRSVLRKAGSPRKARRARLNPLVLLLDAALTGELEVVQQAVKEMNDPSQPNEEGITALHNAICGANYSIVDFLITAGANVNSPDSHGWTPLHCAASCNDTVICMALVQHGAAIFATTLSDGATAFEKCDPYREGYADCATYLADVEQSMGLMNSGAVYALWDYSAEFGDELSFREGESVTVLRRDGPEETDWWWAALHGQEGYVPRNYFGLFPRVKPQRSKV
- Assay Remarks: fluorescence polarisation; fluorescence anisotropy; 250 uM iASPP Ank-SH3 titrated into 100 nM fluorescein-labeled peptide; 10 °C; 20 mM Hepes pH 7.3, 43 mM NaCl (ionic strength 50 mM), 10% glycerol, 5 mM β-mercaptoethanol; fit to a 1:1 model
- Condition Context: both partners purified
No end group written: not given here.
Measurement Name: Kd (µM)

Binder: {5(6)‑carboxyfluorescein}-QAGPPSRPPRYSSSS [fluorescein labeled iASPP 60-74]
Measurement Name: Kd
Numeric Readout: 35
//
Binder: {5(6)‑carboxyfluorescein}-KKQYQQIISRLFHRHGGPGPGGP [fluorescein labeled iASPP 540-562]
Measurement Name: Kd
Numeric Readout: 34

Just for reference, paper PMC4486954 is where these values come from.
